Test system: HeLa cells
Experimental Protocol: Compound screen by flow cytometry: HeLa cell count as surrogate readout of cell viability (z-scoreHeLa); further: test concentration or dose not given here
Type: cell-based, human
Stated Conditions: PKIS compound screen raw data, HeLa cell count, replicate 1
Listed next: entries and their corresponding cell count rep 1.
Experimental Endpoint: cell count rep 1

* c1ccc(-c2n[nH]cc2-c2ccnc(-c3ccc(CNC4CCOCC4)cc3)c2)nc1 [GW709213X] | 27129
* CN1CCC(n2cnc(-c3ccc(F)cc3)c2-c2ccnc(Nc3ccccc3)n2)CC1 | 21592
* O=c1cc(N2CCOCC2)nc2n(Cc3cccc(Cl)c3)ccn12 [GSK2296823A] | 36512
* CN(C)CCCNc1nccc(-c2c(-c3ccc(F)cc3)nn3cc(C(F)(F)F)ccc23)n1 [GW618013A] | 23652
* O=C(Nc1ccccc1F)NC1CCN(c2ccnc(Nc3ccc(F)cc3)n2)C1 (centres unmarked) [GSK1379722A] | 32994
* COc1cccc(NC(=O)NC2CCN(c3ccnc(Nc4cc(OC)c(OC)c(OC)c4)n3)C2)c1 (centres unmarked) [GSK1379763A] | 25281
* COc1cc2nccc(Nc3cccc(Oc4ccccc4)c3)c2cc1OC [GW284543A] | 34308
* O=c1cc(N2CCOCC2)nc2n(Cc3cccc(Cl)c3Cl)c(C3CC3)nn12 [GSK2358994A] | 42747
* COc1ccc(Nc2nccc(N3CCC(NC(=O)Nc4cccc(OC)c4)C3)n2)cc1 (centres unmarked) [GSK1379742A] | 25651
* CCn1c(-c2nonc2N)nc2c(C#CC(C)(C)O)nc(OC[C@@H](N)c3ccccc3)cc21 [GSK938890A] | 14299
* Cc1cc(NCC(c2ccccc2)c2ccccc2)nc(NCc2ccc(C(F)(F)F)cc2)n1 [GW497681X] | 17665
* COc1cc(Nc2nccc(N3CCC(NC(=O)Nc4ccc5c(c4)OCO5)C3)n2)cc(OC)c1OC (centres unmarked) [GSK1379766A] | 25836
* CS(=O)(=O)CCNCc1ccc(-c2ccc3ncnc(Nc4ccc(OCc5ccccc5)c(Cl)c4)c3c2)o1 [GW574783B] | 17891
* CN(c1ccc(NC(=O)Nc2cccc(Cl)c2)cc1)c1ccnc(N)n1 [GW830707A] | 2862
* Cc1ccc(Nc2ccnc(Nc3cccc(C(N)=O)c3)n2)cc1O [GW575808A] | 19398
* Cc1c(O)cccc1Nc1ccnc2ccc(C(F)(F)F)cc12 [GW466413A] | 3244
* CCn1c(-c2nonc2N)nc2c(C#CC(C)(C)O)nc(OC[C@H](N)c3ccccc3)cc21 [GSK943949A] | 779

====

Listed next: entries and their corresponding z-scoreHeLa rep 2.
Tested on: HeLa cells
Experimental Protocol: Compound screen by flow cytometry: HeLa cell count as surrogate readout of cell viability (z-scoreHeLa); further: test concentration or dose not given here
Assay type: cell-based, human
Stated Conditions: PKIS compound screen, HeLa cell count, replicate 2
Experimental Endpoint: z-scoreHeLa rep 2

* CC(C)c1nc(-c2ccc(F)c(NS(=O)(=O)c3c(F)cccc3F)c2)c(-c2ccnc(Nc3ccc(N4CCOCC4)nc3)n2)s1 [GSK1804250A] | -1.52
* O=c1cc(N2CCOCC2)nc2n(Cc3cccc4ccccc34)ccn12 [GSK2333389A] | -0.28
* Cc1ccc(NC(=O)c2ccc(Cl)cc2)cc1-c1ccc(C(=O)Nc2ccncc2)cc1 [GSK1398467A] | -4.07
* Cc1c2ccc(N(C)c3ccnc(Nc4cccc(S(N)(=O)=O)c4)n3)cc2nn1C [GW771127A] | -0.97
* O=C1Nc2ccc(C(=O)c3ccco3)cc2C1=Cc1cc(Cl)c(O)c(Cl)c1 [GW406108X] | 0.90
* c1ccc(Oc2ccc(Nc3ccnc4cc(-c5ccc(CN6CCNCC6)o5)ccc34)cc2)nc1 [GW567142A] | 0.78
* O=C(O[C@H]1CN[C@H](C#Cc2cc3ncnc(Nc4ccc5c(cnn5Cc5ccccc5)c4)c3s2)C1)N1CCOCC1 [GSK200398A] | -0.93
* CN(c1ccc2c(c1)nc(NCc1ccc(F)cc1)n2C)c1ccnc(Nc2ccc(CS(C)(=O)=O)cc2)n1 [GW813244A] | -1.49
